Just for reference, ChEMBL document CHEMBL1777812 is where these values come from.

Experiment: Selectivity index, Ratio of CC50 for african green monkey Vero cells to IC90 for Mycobacterium tuberculosis H37Rv ATCC 27294
Type: toxicity, cell-based
Measure: selectivity ratio
Answers are plain numbers.

Cc1c(/C=N/NC(=O)c2ccncc2)[n+]([O-])c2cc(F)ccc2[n+]1[O-] 3.31

Hi team, please reply with selectivity ratio for each item in this list.
1. Cc1c(/C=N/NC(=O)c2ccncc2)[n+]([O-])c2cc(Cl)ccc2[n+]1[O-]
2. Cc1c(/C=N/NC(=O)c2ccncc2)[n+]([O-])c2cc(C(F)(F)F)ccc2[n+]1[O-]

OUT:
1. 48.1
2. 20

* * *

Task for the reader: assign each of the following molecules its reported CC50 at 72 h.
Assay: Cytotoxicity against african green monkey Vero cells after 72 hrs by Cell titer Glo luminescent cell viability assay
Assay type: cell-based
Details: chlorocebus sabaeus

Example results:
NNC(=O)c1ccncc1 > 500 µM
Cc1c(C(=O)NCc2ccccc2)[n+]([O-])c2cc(F)ccc2[n+]1[O-] > 306 µM
Cc1c(/C=N/NC(=O)c2ccncc2)[n+]([O-])c2cc(F)ccc2[n+]1[O-] 76.5 µM
Cc1c(/C=N/NC(=O)c2ccncc2)[n+]([O-])c2ccccc2[n+]1[O-] > 124 µM
Cc1ccc2c(c1)[n+]([O-])c(/C=N/NC(=O)c1ccncc1)c(C)[n+]2[O-] 52.1 µM

Could I get CC50 at 72 h for every one of these entries?
1. Cc1cc2c(cc1C)[n+]([O-])c(/C=N/NC(=O)c1ccncc1)c(C)[n+]2[O-]
2. Cc1c(C(=O)NCc2ccccc2)[n+]([O-])c2ccccc2[n+]1[O-]
3. Cc1c(/C=N/NC(=O)c2ccncc2)[n+]([O-])c2cc(C(F)(F)F)ccc2[n+]1[O-]
4. Cc1c(/C=N/NC(=O)c2ccncc2)[n+]([O-])c2cc(Cl)ccc2[n+]1[O-]
5. Cc1c(C(=O)NCc2ccccc2)[n+]([O-])c2cc(Cl)ccc2[n+]1[O-]
6. Cc1c(C(=O)NCc2ccccc2)[n+]([O-])c2cc(C(F)(F)F)ccc2[n+]1[O-]
7. Cc1ccc2c(c1)[n+]([O-])c(C(=O)NCc1ccccc1)c(C)[n+]2[O-]

OUT:
1. > 124 µM
2. > 323 µM
3. 70 µM
4. 55.8 µM
5. > 291 µM
6. > 265 µM
7. > 309 µM

* * *

Please provide measured selectivity ratio for the entries that follow.
Assay: Selectivity index, Ratio of CC50 for african green monkey Vero cells to IC90 for Mycobacterium tuberculosis H37Rv ATCC 27294
Format: toxicity, cell-based

Reference set (6 entries):
Cc1c(C(=O)NCc2ccccc2)[n+]([O-])c2ccccc2[n+]1[O-] > 38.4
Cc1ccc2c(c1)[n+]([O-])c(/C=N/NC(=O)c1ccncc1)c(C)[n+]2[O-] 2.86
Cc1c(/C=N/NC(=O)c2ccncc2)[n+]([O-])c2ccccc2[n+]1[O-] > 93
NNC(=O)c1ccncc1 > 20000
Cc1ccc2c(c1)[n+]([O-])c(C(=O)NCc1ccccc1)c(C)[n+]2[O-] > 23.8
Cc1c(C(=O)NCc2ccccc2)[n+]([O-])c2cc(F)ccc2[n+]1[O-] > 65.7

IN: Could you tell me which selectivity ratio is on file for Cc1cc2c(cc1C)[n+]([O-])c(/C=N/NC(=O)c1ccncc1)c(C)[n+]2[O-] ?
OUT: > 43.5
